- subject of test: Adenosine receptor A2a (Rattus norvegicus)
- experiment: Binding affinity against adenosine A2A receptor in rat striatal membrane preparations at 30 uM
- Format: cell membranes
- run conditions: Striatum
Readings of inhibition for the listed compounds
Could you give me the number in %? Just the number is fine.

{"columns": ["molecule smiles", "subject of test", "u", "inhibition"],
 "data": [
  ["C[C@H](c1ccccc1)n1c2c(c3c(N)nc(-c4cccnc4)nc31)CCCC2", "Adenosine receptor A2a (Rattus norvegicus)", "%", 46],
  ["C[C@@H](c1ccccc1)n1c2c(c3c(N)nc(-c4ccccn4)nc31)CCCC2", "Adenosine receptor A2a (Rattus norvegicus)", "%", 38],
  ["C[C@H](c1ccccc1)n1c2c(c3c(N)nc(-c4cc[n+]([O-])cc4)nc31)CCCC2", "Adenosine receptor A2a (Rattus norvegicus)", "%", 50]
]}

Now take the following compound into account.
Lookup: inhibition / Adenosine receptor A2a (Rattus norvegicus) / C[C@@H](c1ccccc1)n1c2c(c3c(N)nc(-c4ccncc4)nc31)CCCC2
2

====

- experiment: Solubility determined in […]-hydrochloride buffer at pH 7.4
- Format: physicochemical
- run conditions: in the assay text read “50 mM” for “50 nM”
Readings of solubility for the listed molecules
Could you give me the number in µM? Just the number is fine.

Guide cases for solubility, answers given:
{"columns": ["molecule", "u", "solubility"],
 "data": [
  ["Cc1c(C)n([C@H](C)c2ccccc2)c2nc(-c3ccccc3)nc(NCCN)c12", "µM", 24.2],
  ["CCC(CO)Nc1nc(-c2ccccc2)nc2c1c(C)c(C)n2C1CCCC1 (stereo not given)", "µM", 13.2],
  ["CCC(CO)Nc1nc(-c2ccc(Cl)cc2)nc2c1c(C)c(C)n2[C@H](C)c1ccccc1 (stereo not given in full)", "µM", 11.2],
  ["C[C@@H](c1ccccc1)n1c2ccccc2c2c(N)nc(-c3ccccn3)nc21", "µM", 5]
]}

Now take the following molecule into account.
Entry C[C@H](c1ccccc1)n1c2ccccc2c2c(N)nc(-c3ccncc3)nc21 has what solubility?
3

====

- subject of test: Adenosine receptor A2a (Rattus norvegicus)
- experiment: Binding affinity against adenosine A2A receptor in rat striatal membrane preparations using [3H]CGS-21680 at 10 uM
- Format: cell membranes, Striatum
recorded endpoint: Ki

{"columns": ["molecule smiles", "Ki"],
 "data": [
  ["Cc1c(C)n([C@H](C)c2ccccc2)c2nc(-c3ccccc3)nc(N)c12", "3710 nM"]
]}

Entry C[C@H](c1ccccc1)n1c2ccccc2c2c(N)nc(-c3ccncc3)nc21 has what Ki?
1850 nM

====

- subject of test: Adenosine receptor A2a (Rattus norvegicus, UniProt P30543)
- Sequence (P30543 whole entry): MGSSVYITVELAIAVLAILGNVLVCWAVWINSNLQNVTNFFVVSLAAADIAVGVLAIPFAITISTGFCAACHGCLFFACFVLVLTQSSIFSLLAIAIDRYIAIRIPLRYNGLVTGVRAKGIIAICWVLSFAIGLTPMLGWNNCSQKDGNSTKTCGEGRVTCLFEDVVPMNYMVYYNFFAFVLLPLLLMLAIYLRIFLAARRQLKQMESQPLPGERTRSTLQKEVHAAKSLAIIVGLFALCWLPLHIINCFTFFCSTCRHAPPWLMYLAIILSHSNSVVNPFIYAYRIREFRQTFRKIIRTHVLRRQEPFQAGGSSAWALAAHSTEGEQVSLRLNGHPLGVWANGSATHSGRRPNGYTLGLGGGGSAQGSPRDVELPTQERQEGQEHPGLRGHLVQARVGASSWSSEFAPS
- experiment: Binding affinity at adenosine A2A receptor in rat striatal membrane preparations using [3H]CGS-21680 at a 30 uM
- Assay type: cell membranes, Striatum
Readings of log10 of Ki for the listed compounds
Hello, just confirming the data are log10 of Ki with units of µM.

Entry Cc1c(C)n([C@H](C)c2ccccc2)c2nc(-c3cccs3)nc(N)c12 has what log10 of Ki?
0.73

Ok, now Cc1c(C)n([C@H](C)c2ccccc2)c2nc(-c3cnccn3)nc(N)c12
0.82

====

- subject of test: Adenosine receptor A1 (Homo sapiens) (UniProt P30542)
- Sequence (P30542 whole entry, looked up): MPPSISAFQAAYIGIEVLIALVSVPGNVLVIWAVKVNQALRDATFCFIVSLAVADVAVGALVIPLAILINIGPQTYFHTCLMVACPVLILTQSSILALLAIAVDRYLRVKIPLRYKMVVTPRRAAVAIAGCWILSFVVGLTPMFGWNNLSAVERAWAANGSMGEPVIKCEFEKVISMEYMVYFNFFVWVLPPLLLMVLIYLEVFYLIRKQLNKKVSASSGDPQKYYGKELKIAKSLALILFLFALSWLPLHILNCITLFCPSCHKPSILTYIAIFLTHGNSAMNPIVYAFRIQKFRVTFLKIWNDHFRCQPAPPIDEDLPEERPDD
recorded endpoint: pKi
Expect pKi as a plain number equal to -log10 of the molar concentration.

Lookup: pKi / Adenosine receptor A1 (Homo sapiens) (UniProt P30542) / Cc1c(C)n([C@H](C)c2ccccc2)c2nc(-c3ccncc3)nc(N)c12
8.06

====

- subject of test: Adenosine receptor A1 (Rattus norvegicus, UniProt P25099)
- Sequence (P25099 whole entry): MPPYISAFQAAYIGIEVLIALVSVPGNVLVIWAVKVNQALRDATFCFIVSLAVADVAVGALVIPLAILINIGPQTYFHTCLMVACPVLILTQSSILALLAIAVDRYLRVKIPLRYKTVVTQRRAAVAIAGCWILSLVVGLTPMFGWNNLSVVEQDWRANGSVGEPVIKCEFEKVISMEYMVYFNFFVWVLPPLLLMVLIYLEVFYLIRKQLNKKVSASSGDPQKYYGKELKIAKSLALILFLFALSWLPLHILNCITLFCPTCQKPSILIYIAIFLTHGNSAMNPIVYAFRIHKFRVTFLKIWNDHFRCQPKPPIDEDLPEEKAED
pKi: −log10 of the molar value.
# pKi >= 7 gives satisfied, anything below gives not satisfied

Solved cases below.
{"columns": ["molecule smiles", "cat"],
 "data": [
  ["Cc1c(C)n([C@H](C)c2ccccc2)c2nc(-c3cccs3)nc(N)c12", "satisfied"],
  ["C[C@@H](c1ccccc1)n1c2ccccc2c2c(N)nc(-c3ccccn3)nc21", "not satisfied"],
  ["Cc1c(C)n([C@H](C)c2ccccc2)c2nc(-c3ccncc3)nc(N)c12", "satisfied"]
]}

Exam item: decide whether the reported pKi for C[C@H](c1ccccc1)n1c2c(c3c(N)nc(-c4cccnc4)nc31)CCCC2 is at least 7.
not satisfied

Ok, now C[C@H](c1ccccc1)n1c2ccccc2c2c(N)nc(-c3ccncc3)nc21
satisfied

Ok, now Cc1c(C)n([C@H](C)c2ccccc2)c2nc(-c3ccccc3)nc(N[C@@H](C)c3ccccc3)c12
not satisfied

Ok, now Cc1c(C)n([C@H](C)c2ccccc2)c2nc(-c3ccccc3)nc(NCCN)c12
not satisfied

====

Readings of Ratio for the listed compounds
- subject of test: UniProtKB P25099
- Sequence (whole entry): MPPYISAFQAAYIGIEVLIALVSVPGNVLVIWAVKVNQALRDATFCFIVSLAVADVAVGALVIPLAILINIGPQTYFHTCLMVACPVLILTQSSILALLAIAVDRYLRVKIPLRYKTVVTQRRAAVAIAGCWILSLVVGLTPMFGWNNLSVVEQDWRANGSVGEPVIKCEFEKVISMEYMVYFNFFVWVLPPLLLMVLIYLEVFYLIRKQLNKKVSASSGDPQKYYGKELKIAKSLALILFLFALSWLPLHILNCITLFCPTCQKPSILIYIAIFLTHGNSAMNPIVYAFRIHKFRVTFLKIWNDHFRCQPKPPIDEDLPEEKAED
- experiment: Ratio between solubility and Ki for A1 adenosine receptor
I'd appreciate a reply containing only the number, no unit.

{"columns": ["compound", "Ratio"],
 "data": [
  ["CCC(CO)Nc1nc(-c2ccccc2)nc2c1c(C)c(C)n2C1CCCC1 (stereo not given)", 11],
  ["Cc1c(C)n([C@H](C)c2ccccc2)c2nc(-c3ccccc3)nc(NCCN)c12", 7],
  ["CCC(CO)Nc1nc(-c2ccc(Cl)cc2)nc2c1c(C)c(C)n2[C@H](C)c1ccccc1 (stereo not given in full)", 4],
  ["C[C@@H](c1ccccc1)n1c2ccccc2c2c(N)nc(-c3ccccn3)nc21", 9]
]}

Now take the following compound into account.
Entry C[C@H](c1ccccc1)n1c2ccccc2c2c(N)nc(-c3ccncc3)nc21 has what Ratio?
142

====

- subject of test: Adenosine receptor A2a (Rattus norvegicus)
- experiment: Binding affinity against adenosine A2A receptor in rat striatal membrane preparations using [3H]CGS-21680 at 30 uM
- Assay type: cell membranes
- run conditions: Striatum
recorded endpoint: inhibition (%)
Could you give me the number in %? Just the number is fine.

Guide cases for inhibition, answers given:
{"columns": ["compound", "u", "inhibition"],
 "data": [
  ["Nc1nc(-c2cccnc2)nc2c1c1c(n2-c2ccccc2)CCCC1", "%", 44],
  ["Cc1c(C)n([C@H](C)c2ccccc2)c2nc(-c3ccccc3)nc(N[C@@H](C)c3ccccc3)c12", "%", 26],
  ["CCC(CO)Nc1nc(-c2ccccc2)nc2c1c(C)c(C)n2C1CCCC1 (configuration not stated)", "%", 22],
  ["Cc1c(C)n([C@H](C)c2ccccc2)c2nc(-c3cccnc3)nc(N)c12", "%", 3],
  ["COc1ccccc1-c1nc(N)c2c(C)c(C)n([C@H](C)c3ccccc3)c2n1", "%", 14]
]}

Entry CCC(CO)Nc1nc(-c2ccc(Cl)cc2)nc2c1c(C)c(C)n2[C@H](C)c1ccccc1 (some centres not stated) has what inhibition?
36

Ok, now Cc1c(C)n([C@H](C)c2ccccc2)c2nc(-c3ccccc3)nc(NCCN)c12
2

Ok, now Cc1c(C)n([C@H](C)c2ccccc2)c2nc(-c3ccccn3)nc(N)c12
43

Ok, now Nc1nc(-c2ccccn2)nc2c1c1c(n2-c2ccccc2)CCCC1
42

Ok, now Cc1c(C)n([C@H](C)c2ccccc2)c2nc(-c3ccccc3)nc(NC3CCCC3)c12
19

Ok, now Cc1c(C)n([C@H](C)c2ccccc2)c2nc(C(C)c3ccccc3)nc(N)c12 (some centres not stated)
38

Ok, now Cc1c(C)n([C@H](C)c2ccccc2)c2nc(-c3ccccc3O)nc(N)c12
46

====

- subject of test: Adenosine receptor A2a (Rattus norvegicus, UniProt P30543)
- experiment: Binding affinity at adenosine A2A receptor in rat striatal membrane preparations using [3H]CGS-21680 at a 30 uM
- Assay type: cell membranes, Striatum
recorded endpoint: pKi
Expect pKi as a plain number equal to -log10 of the molar concentration.

Guide cases for pKi, answers given:
{"columns": ["molecule smiles", "result value"],
 "data": [
  ["Cc1c(C)n([C@H](C)c2ccccc2)c2nc(-c3ccncc3)nc(N)c12", 5.89],
  ["Cc1c(C)n([C@H](C)c2ccccc2)c2nc(-c3cc[n+]([O-])cc3)nc(N)c12", 5.23]
]}

Lookup: pKi / Adenosine receptor A2a (Rattus norvegicus, UniProt P30543) / Cc1c(C)n([C@H](C)c2ccccc2)c2nc(-c3ccco3)nc(N)c12
6.31
